- targetOrSystem: BoNT/DC mosaic toxin (Clostridium botulinum)
- measurementDescription: yeast scFv FACS
observationType: pKd
Answer as the number alone; pKd is minus log10 of concentration in mol/L.

These solved cases illustrate the format of a correct answer.
4C4.1 scFv (scFv, V domains shown) VH: QVQLVESGPGLVKPSQTLSLTCSVSGASINNSPYFWNWFRQFPGKGLEWIGYIYWSGSTNYNPSLKSRLAMSVDTSKNQFSLKLTSATAADTAVYYCARDQGGGTVVKENWFDPWGQGTLVTVSS VL: ETTLTQSPSSLSASVGDRVSITCRASQSISNYLNWYQQKPGKAPKLLIYAASSLQSGVPSRFSGSGSGTDFTLTISSLQPEDFATYYCQQSYSDPPTFGQGTKVEIKR ... 10.22
4C4 scFv (scFv, V domains shown) VH: QVQLVESGPGLVKPSQTLSLTCSVSGASINNSPYFWNWFRQFPGKGLEWIGYIYWSGSTNYNPSLKSRLAMSVDTSKNQFSLKLTSATAADTAVYYCARDQGGGTVVKENWFDPWGQGTLVTVSS VL: DIVMTQSPSSLSASVGDRLTMTCQASQDIGKHLNWYQQKAGKPPKLLIYGASNLKTGVPSRFSAGVSWTDFTFTISNVQPEDVATYYCQQSYSTPPTFGQGTKVEIKR ... 9.24

I would be grateful if you could share the reported pKd for 4C4.2 scFv (scFv, V domains shown) VH: QVQLVESGPGLVKPSQTLSLTCSVSGASINNSPYFWNWFRQFPGKGLEWIGYIYWSGSTNYNPSLKSRLAMSVDTSKNQFSLKLTSATAADTAVYYCARDQGGGTVVKENWFDPWGQGTLVTVSS VL: DIQMTQSPSTLSASVGDRVTITCRASQSIGTYLNWYQQKPGRAPTLLVSRTSNLHTGVPSRFSGDGSGSHFSLTIDSLQPEDFATYYCQQSHTSPVTFGQGTKVEIKR .
9.89

Origin of the recorded values: patent US20180208680A1
